Molecular target: T1, SNX17 full length (residue 1-470) with an intramolecular decaHis tag (human, UniProt Q15036 1-470)
T1 chain: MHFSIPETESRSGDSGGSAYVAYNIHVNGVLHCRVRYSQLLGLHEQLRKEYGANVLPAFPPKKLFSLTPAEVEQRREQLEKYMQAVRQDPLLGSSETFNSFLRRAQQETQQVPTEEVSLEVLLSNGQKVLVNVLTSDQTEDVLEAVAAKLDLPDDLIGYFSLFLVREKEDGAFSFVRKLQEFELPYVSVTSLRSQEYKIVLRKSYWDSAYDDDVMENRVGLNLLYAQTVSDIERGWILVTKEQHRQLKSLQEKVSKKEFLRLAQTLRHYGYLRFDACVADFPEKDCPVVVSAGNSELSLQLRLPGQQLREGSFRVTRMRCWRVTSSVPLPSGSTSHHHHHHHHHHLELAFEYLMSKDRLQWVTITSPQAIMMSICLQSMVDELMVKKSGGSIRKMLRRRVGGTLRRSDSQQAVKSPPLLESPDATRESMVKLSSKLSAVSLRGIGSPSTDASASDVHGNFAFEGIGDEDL
Experiment: ITC
RECORDED METRIC: Kd
In your response, put the unit directly after the numeric value.

Give the measured Kd of NGYENPTYKFFEQM [APP cargo recognition peptide (755-768)] .
14.8 µM

Give the measured Kd of VEIGNPTYKMYEGG [LRP1 cargo recognition peptide (4466-4479)] .
13.6 µM

All values here come from paper PMC11339278.
